- System: Helicobacter pylori
- experimental details: Viability of H. pylori after 1 hour in prototype nutritional compositions containing FFA or MG (Example 3, Table 6)
- Type: cell-based, Helicobacter pylori (ATCC 43629)
- run conditions: Ultracal (Formulation III); 5 mM; 1 hour
measured endpoint: Change in viable cell number (LOG CFU/mL)
Field format: number, assumed LOG CFU/mL, no unit text.

INSERT INTO measurements (compound, unit, readout_value) VALUES
  ('CCCCCCCCCCCC(=O)OCC(O)CO (stereo not drawn) [Monolaurin, monolaurin]', 'LOG CFU/mL', -3.04),
  ('CCCCCCCCCC(=O)O [Capric Acid, capric acid, reference compound]', 'LOG CFU/mL', 0.03),
  ('CCCCCCCCCC(=O)OCC(O)CO (stereo not drawn) [Monocaprin, monocaprin]', 'LOG CFU/mL', -4.40),
  ('CCCCCCCC(=O)OCC(O)CO (stereo not drawn) [Monocaprylin, monocaprylin]', 'LOG CFU/mL', 0.00);

Request: Value lookup for Change in viable cell number; key = CCCCCCCCCCCC(=O)O [Lauric Acid, lauric acid]
Result: 0.33

Request: Value lookup for Change in viable cell number; key = CCCCCCCC(=O)O [Caprylic Acid, caprylic acid, reference compound]
Result: 0.06
